Data origin, for the record: patent US8367687B2

system_under_test: CDK4 (Homo sapiens)
test_method_notes: CDK4 HTRF
Type: biochemical
condition_label: Table 2; read-out: CDK4 HTRF/ IC50
property_measured: IC50

Check out these entries, answers already filled in.
Cc1n[nH]cc1-c1ccnc(NCC2CCCCCC2)n1
< 5 µM
Cc1n[nH]cc1-c1ccnc(NCC(C)C)n1
< 5 µM
Cc1n[nH]cc1-c1ccnc(NCc2ccc3c(c2)OCO3)n1
< 5 µM
Cc1n[nH]cc1-c1ccnc(NC2Cc3ccccc3C2)n1
< 0.5 µM
COc1ccc(CNc2nccc(-c3c[nH]nc3C)n2)cc1
< 5 µM
Cc1[nH]nc(C(C)C)c1-c1ccnc(NC2CCN(C)CC2)n1
< 5 µM
COCCNc1nccc(-c2c[nH]nc2C)n1
< 15 µM
Cc1n[nH]cc1-c1ccnc(NCCCn2ccnc2)n1
< 5 µM

Qu. # value lookup — system CDK4 (Homo sapiens), readout IC50, item `CC(C)COCCCNc1nccc(-c2c[nH]nc2C(C)C)n1`
Ans. < 0.5 µM

Qu. And `CC(=O)NCCNc1nccc(-c2c[nH]nc2C)n1` ?
Ans. < 5 µM

====

Reported pIC50 is given for each of the following compounds.
system_under_test: hCDK1/B (Homo sapiens)
Sequence (P06493 whole entry): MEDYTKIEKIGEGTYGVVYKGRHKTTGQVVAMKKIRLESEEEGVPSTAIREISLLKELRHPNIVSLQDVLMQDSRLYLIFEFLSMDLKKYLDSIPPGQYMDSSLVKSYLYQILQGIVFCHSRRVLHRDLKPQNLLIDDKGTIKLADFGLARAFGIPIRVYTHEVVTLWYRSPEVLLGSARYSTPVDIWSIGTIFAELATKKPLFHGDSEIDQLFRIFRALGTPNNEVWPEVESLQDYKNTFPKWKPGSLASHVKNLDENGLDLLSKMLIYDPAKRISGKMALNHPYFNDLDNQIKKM
Sequence (P14635 whole entry partner): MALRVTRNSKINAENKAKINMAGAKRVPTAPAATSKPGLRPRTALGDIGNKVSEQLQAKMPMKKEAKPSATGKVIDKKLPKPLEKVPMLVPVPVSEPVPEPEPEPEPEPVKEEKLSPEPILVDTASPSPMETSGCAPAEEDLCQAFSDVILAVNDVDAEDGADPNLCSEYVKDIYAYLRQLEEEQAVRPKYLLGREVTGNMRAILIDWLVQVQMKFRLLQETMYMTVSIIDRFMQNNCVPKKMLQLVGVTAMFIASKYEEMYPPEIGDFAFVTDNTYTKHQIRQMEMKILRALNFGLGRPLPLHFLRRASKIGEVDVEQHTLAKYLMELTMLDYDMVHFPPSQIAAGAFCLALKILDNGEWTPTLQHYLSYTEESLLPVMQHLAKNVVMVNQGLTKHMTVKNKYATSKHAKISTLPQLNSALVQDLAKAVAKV
test_method_notes: hCDK1/B
Type: biochemical
condition_label: Table 1
pIC50: −log10 of the molar value.

CC(C)c1[nH]ncc1-c1ccnc(NC2CCCCC2)c1
> 6.00
c1ccc2c(c1)CC(Nc1cc(-c3cn[nH]c3C3CCCCCC3)ccn1)C2
> 5.30
CC(C)c1[nH]ncc1-c1ccnc(NCc2ccncc2)c1
> 5.30
Cc1ccccc1CNc1cc(-c2cn[nH]c2C2CCCCCC2)ccn1
> 5.00
CC(C)c1[nH]ncc1-c1ccnc(NC(C)c2ccccc2)c1 (stereo not drawn)
> 5.30

Next compound, please.
Qu. Quick one: pIC50 for `CC(C)c1[nH]ncc1-c1ccnc(Nc2ccccc2)c1` ?
Ans. > 7.00

====

system_under_test: CDK2 cyA (Homo sapiens, UniProt P24941)
test_method_notes: CDK2 cyA IMAP
Format: biochemical
condition_label: Table 2; read-out: CDK2cyA IMAP/ IC50
property_measured: IC50

Check out these entries, answers already filled in.
Cc1n[nH]cc1-c1ccnc(NCC(C)C)n1
< 5 µM
Cc1n[nH]cc1-c1ccnc(NCCc2ccccc2)n1
< 10 µM
Cc1n[nH]cc1-c1ccnc(NCc2ccccc2)n1
< 15 µM
Cc1n[nH]cc1-c1ccnc(NC2CCc3ccccc32)n1 (stereo not drawn)
< 10 µM
Cc1cc(C)n(CCNc2nccc(-c3c[nH]nc3C(C)C)n2)n1
< 15 µM

Qu. Quick one: IC50 for `CC(C)c1n[nH]cc1-c1ccnc(NCc2ccccc2C(F)(F)F)n1` ?
Ans. < 5 µM

Qu. And `CC(C)c1n[nH]cc1-c1ccnc(NCc2ccc(N(C)C)cc2)n1` ?
Ans. < 5 µM

====

system_under_test: CDK4 (Homo sapiens, UniProt P11802)
Sequence (P11802 whole entry): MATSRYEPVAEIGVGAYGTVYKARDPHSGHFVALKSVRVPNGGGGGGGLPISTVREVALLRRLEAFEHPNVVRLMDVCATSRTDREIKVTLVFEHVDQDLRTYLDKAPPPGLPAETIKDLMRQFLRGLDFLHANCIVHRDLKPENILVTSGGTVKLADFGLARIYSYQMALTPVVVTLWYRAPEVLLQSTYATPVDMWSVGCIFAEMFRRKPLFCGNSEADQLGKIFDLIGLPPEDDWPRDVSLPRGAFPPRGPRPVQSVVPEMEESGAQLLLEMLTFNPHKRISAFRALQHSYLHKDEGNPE
Sequence (P24385 whole entry partner): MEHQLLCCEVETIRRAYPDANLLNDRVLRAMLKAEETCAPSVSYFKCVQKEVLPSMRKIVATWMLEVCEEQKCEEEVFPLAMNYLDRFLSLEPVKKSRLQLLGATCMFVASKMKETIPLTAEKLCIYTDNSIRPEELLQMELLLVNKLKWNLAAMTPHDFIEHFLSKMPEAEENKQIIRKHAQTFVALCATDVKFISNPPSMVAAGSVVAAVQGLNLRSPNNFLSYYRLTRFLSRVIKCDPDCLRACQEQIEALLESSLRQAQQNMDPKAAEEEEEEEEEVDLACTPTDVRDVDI
test_method_notes: CDK4 HTRF
Type: biochemical
condition_label: Table 1; read-out: CDK4 HTRF
Reported IC50 is given for each of the following molecules.

CC(C)CCNc1cc(-c2cn[nH]c2C(C)C)ccn1 [Example 12]
< 1000 nM
CC(C)c1[nH]ncc1-c1ccnc(NC(C)c2ccccc2)c1 (centres unmarked) [Example 27]
< 1000 nM
CCC(CC)c1[nH]ncc1-c1ccnc(NCc2ccccc2C)c1 [Example 71]
< 500 nM
CC(C)c1[nH]ncc1-c1ccnc(NCc2cccc(C(F)(F)F)c2)c1 [Example 25]
< 5000 nM
CC(C)c1[nH]ncc1-c1ccnc(NC2CCCCCC2)c1 [Example 40]
< 500 nM

Qu. Quick one: IC50 for c1cc(-c2cn[nH]c2C2CCCC2)cc(NC2CCCC2)n1 [Example 3] ?
Ans. < 500 nM

Qu. And CC(C)c1[nH]ncc1-c1ccnc(NCCN2CCCC2)c1 [Example 17] ?
Ans. < 5000 nM

Qu. And Cc1ccccc1CNc1cc(-c2cn[nH]c2C2CCCC2)ccn1 [Example 60] ?
Ans. < 500 nM

====

system_under_test: CDK4 (Homo sapiens, UniProt P11802)
test_method_notes: CDK4 HTRF
Format: biochemical
condition_label: Table 1; read-out: CDK4 HTRF
pIC50: −log10 of the molar value.
property_measured: pIC50

Qu. Quick one: pIC50 for CN1CCC(Nc2cc(-c3cn[nH]c3C3CCCC3)ccn2)CC1 [Example 79] ?
Ans. > 5.30

Qu. And c1cc(-c2cn[nH]c2C2CCCC2)cc(NCC2CC2)n1 [Example 57] ?
Ans. > 6.00

====

system_under_test: UniProt P24941
test_method_notes: CDK2 cyA IMAP
Assay type: biochemical
condition_label: Table 1; read-out: CDK2 cyA IMAP
property_measured: IC50

CN1CCC(Nc2cc(-c3cn[nH]c3C3CC3)ccn2)CC1 [Example 80]
≥ 15 µM
CC(C)c1[nH]ncc1-c1ccnc(NCCN2CCOCC2)c1 [Example 32]
< 10 µM
CC(C)CCNc1cc(-c2cn[nH]c2C(C)C)ccn1 [Example 12]
< 5 µM
Cc1ccccc1CNc1cc(-c2cn[nH]c2C(C)C)ccn1 [Example 14]
< 5 µM
CC(C)c1[nH]ncc1-c1ccnc(NCCOc2ccccc2)c1 [Example 21]
< 10 µM
CCC(C)Nc1cc(-c2cn[nH]c2C(C)C)ccn1 (stereo not drawn) [Example 26]
< 1 µM

Qu. Quick one: IC50 for CC(C)c1[nH]ncc1-c1ccnc(NCc2ccco2)c1 [Example 24] ?
Ans. < 5 µM

Qu. And CN1CCC(Nc2cc(-c3cn[nH]c3C3CCCC3)ccn2)CC1 [Example 79] ?
Ans. ≥ 15 µM

Qu. And c1cc(-c2cn[nH]c2C2CCCC2)cc(NC2CCCCCC2)n1 [Example 55] ?
Ans. < 1 µM

Qu. And CC(C)CNc1cc(-c2cn[nH]c2C(C)C)ccn1 [Example 9] ?
Ans. < 0.5 µM

Qu. And c1cc(-c2cn[nH]c2C2CCCC2)cc(NC2CCCCC2)n1 [Example 54] ?
Ans. < 1 µM

====

Reported IC50 is given for each of the following compounds.
system_under_test: CDK2 cyA (Homo sapiens, UniProt P24941)
test_method_notes: CDK2 cyA IMAP
Format: biochemical
condition_label: Table 2; read-out: CDK2cyA IMAP/ IC50

CC(C)c1n[nH]cc1-c1ccnc(NC2CCCCC2C)n1 (stereo not shown)
< 1 µM
Cc1n[nH]cc1-c1ccnc(NCCc2c[nH]c3ccccc23)n1
< 10 µM
Cc1n[nH]cc1-c1ccnc(NC2CCCCCC2)n1
< 5 µM
CC(C)c1n[nH]cc1-c1ccnc(N[C@@H](C)c2ccccc2)n1
< 10 µM

Qu. Quick one: IC50 for CC(CN(C)C)Nc1nccc(-c2c[nH]nc2C(C)C)n1 (stereo not shown) ?
Ans. ≥ 15 µM

Qu. And `COc1cc(CNc2nccc(-c3c[nH]nc3C)n2)cc(OC)c1` ?
Ans. ≥ 15 µM

Qu. And CC(C)c1n[nH]cc1-c1ccnc(NC(C)c2ccccc2)n1 (stereo not shown) ?
Ans. < 5 µM

====

system_under_test: CDK4 (Homo sapiens)
test_method_notes: CDK4 HTRF
Assay type: biochemical
condition_label: Table 2; read-out: CDK4 HTRF/ IC50
pIC50: −log10 of the molar value.
Reported pIC50 is given for each of the following compounds.

Check out these entries, answers already filled in.
COc1cccc(OC)c1CNc1nccc(-c2c[nH]nc2C(C)C)n1 [Example 156]
> 4.82
CC(C)c1n[nH]cc1-c1ccnc(NC2CC(C)(C)c3ccccc32)n1 (stereo not shown) [Example 191]
> 6.30
CC(C)c1n[nH]cc1-c1ccnc(NC2CCN(C)CC2)n1 [Example 139]
> 7.30
CC(CCCC(C)(C)O)Nc1nccc(-c2c[nH]nc2C(C)C)n1 (stereo not shown) [Example 145]
> 6.30
CC(C)c1n[nH]cc1-c1ccnc(NC2CCc3cc(F)ccc32)n1 (stereo not shown) [Example 189]
> 7.00

Qu. Quick one: pIC50 for Cc1n[nH]cc1-c1ccnc(NC2CC2)n1 [Example 97] ?
Ans. > 5.30

Qu. And Cc1n[nH]cc1-c1ccnc(NCc2ccc(F)cc2)n1 [Example 95] ?
Ans. > 5.30

====

Reported IC50 is given for each of the following molecules.
system_under_test: CDK2 cyA (Homo sapiens, UniProt P24941)
test_method_notes: CDK2 cyA IMAP
Format: biochemical
condition_label: Table 2; read-out: CDK2cyA IMAP/ IC50

Cc1n[nH]cc1-c1ccnc(NC2CCN(Cc3ccccc3)C2)n1 (centres unmarked)
< 10 µM
COc1ccc(CNc2nccc(-c3c[nH]nc3C)n2)cc1
< 15 µM
CC(CCc1ccccc1)Nc1nccc(-c2c[nH]nc2C(C)C)n1 (centres unmarked)
< 5 µM
Cc1n[nH]cc1-c1ccnc(NCc2ccncc2)n1
< 15 µM
CC(C)c1n[nH]cc1-c1ccnc(NCCCN(C)C)n1
< 10 µM
CC(C)c1n[nH]cc1-c1ccnc(NC2CN3CCC2CC3)n1 (centres unmarked)
< 5 µM
CC(C)c1n[nH]cc1-c1ccnc(NC2CCCCC2)n1
< 0.05 µM
CCN(CC)CCNc1nccc(-c2c[nH]nc2C(C)C)n1
≥ 15 µM

Qu. Quick one: IC50 for `Cc1n[nH]cc1-c1ccnc(NCCCO)n1` ?
Ans. < 15 µM

Qu. And `Cc1n[nH]cc1-c1ccnc(NCc2cccc(C(F)(F)F)c2)n1` ?
Ans. < 10 µM

Qu. And `Cc1ccccc1CNc1nccc(-c2c[nH]nc2C(C)C)n1` ?
Ans. < 1 µM
